- Test system: Leukemia cell lines
- Experiment summary: NCI in vitro cytotoxicity, whole panel
- Type: cell-based
- Experimental conditions: Homo sapiens; Leukemia; average of six to eight cell lines; read-out: Log10 LC50 (converted)
# CC50 per record follows
Readout kind: CC50

>  <Molecule>
COc1cc(C(=O)/C=C/c2c(C(F)(F)F)nc3sccn23)cc(OC)c1OC [Compound 7f]

>  <Experimental value>
≥ 100 µM

$$$$
>  <Molecule>
COc1cc(C(=O)/C=C/c2c(-c3ccc(F)cc3)nc3sccn23)cc(OC)c1OC [Compound 7e]

>  <Experimental value>
70.8 µM

$$$$
>  <Molecule>
COc1cc(C(=O)/C=C/c2c(-c3ccc(F)cc3)nc3sc(C)cn23)cc(OC)c1OC [Compound 19e]

>  <Experimental value>
≥ 100 µM

$$$$
>  <Molecule>
COc1ccc(C(=O)/C=C/c2c(C(F)(F)F)nc3sccn23)cc1OC [Compound 8f]

>  <Experimental value>
≥ 100 µM

$$$$

These data points were gathered from patent US8916711B2.
